Listing of entries alongside the reported melting point.

molecule: O=C(O)c1cc(N2C(=O)C3=C(CCCC3)C2=O)ccc1O
melting point: 240 °C
//
molecule: COC(=O)C1C(c2cccc([N+](=O)[O-])c2)C(C(=O)OC(C)C)=C(C)NC1(O)c1ccccc1 (stereo unspecified)
melting point: 134 to 135 °C

melting point in this record for N#CCc1cc2cc(Br)ccc2s1 : 94 to 96 °C

melting point in this record for Brc1ccc(N(Cc2ccccc2)c2ccccc2)cc1 : 97 to 98 °C

melting point in this record for N#Cc1c(-c2cccs2)nn(-c2ccccc2)c1N : 165 to 167 °C

melting point in this record for Cc1cc(C(=O)Nc2cc(F)ccc2O)c(Br)s1 : 210 to 212 °C

melting point in this record for CCCCN1CC(=O)N2[C@@H](c3ccc(NC(C)=O)cc3)c3[nH]c4ccccc4c3C[C@@H]2C1=O (relative stereo) : 246 °C

----------
Listing of entries alongside the reported melting point.

melting point in this record for CC(C)(C)OC(=O)NCC1(CC(N)=O)CCCCC1 : 123 to 125 °C

----------
Listing of entries alongside the reported melting point.

Here is how some compounds turned out for melting point.
compound: COc1ccc(N(Cc2cc(C(C)(C)C)c(O)c(C(C)(C)C)c2)S(=O)(=O)c2cccs2)cn1
observation-type: melting point
reported: 96 to 97 °C
//
compound: Cc1cc(OCC2CO2)c(N)c([N+](=O)[O-])c1 (stereo not given)
observation-type: melting point
reported: 90 to 91 °C
//
compound: CCOc1c(C)c(N2CCN(c3ccc(F)cc3)CC2)c(C)c2c1OC(C)(C)C2
observation-type: melting point
reported: 163 to 165 °C
//
compound: CC(C)CC(=O)c1c(-c2ccc3cc(O)cc(Br)c3c2)oc2ccccc12
observation-type: melting point
reported: 160 to 161 °C
//
compound: CC1(C)CC(OC(=O)CCl)CC(C)(C)N1OC1CCCCC1
observation-type: melting point
reported: 62 to 64 °C
//
compound: COc1ccc2c(c1)sc1[nH]c(=O)c(=O)[nH]c12
observation-type: melting point
reported: > 300 °C
//
compound: CC1(C)CCc2c(ccc3c2C(=O)C(Br)=C(O)C3=O)O1
observation-type: melting point
reported: 213 to 216 °C
//
compound: CCCc1nn(CC)c(C(N)=O)c1N
observation-type: melting point
reported: 81 to 83 °C

melting point in this record for Cc1cccc(Nc2cc(-c3c(-c4cccc(C)c4)nc4cccnn34)ccn2)c1 : 195 to 196 °C

melting point in this record for CC(=O)N(C)CCc1ccc(C=CC(=O)O)cc1 : 157 to 158 °C

----------
observation-type: melting point

compound: c1cc(Oc2ccc3c(c2)CCCN3)ccn1
melting point: 117 to 122 °C

compound: Cc1cc(C(=O)NCO)ncc1C(c1c(F)ccc(F)c1F)S(=O)(=O)CCC(F)(F)F (stereo not given)
melting point: 146 to 148 °C

compound: Cc1cc(S(=O)(=O)c2cc(C)c(O)c(C3CCCCC3)c2)cc(C2CCCCC2)c1O
melting point: 264 to 265 °C

compound: COc1ccc2c(c1CC=C(C)C)OC(c1ccc(O)cc1O)CC2 (stereo not given)
melting point: 95 to 96 °C

compound: O=C(c1ccc(-c2ccc(-c3ccc(-c4ccc(C(=O)c5c(F)c(F)c(F)c(F)c5F)s4)s3)s2)s1)c1c(F)c(F)c(F)c(F)c1F
melting point: 291 to 294 °C

melting point in this record for O=C(c1ccc(Nc2ncnc3ccccc23)cc1)N1CCN(c2ncc(Cc3ccccc3)cn2)CC1 : 245 to 247 °C

melting point in this record for C1=C(c2ccccc2)CC(CN2CCN(c3ccccn3)CC2)CC1 (stereo not given) : 96 to 98 °C

melting point in this record for C=CCc1c(O)ccc2ccc(=O)[nH]c12 : 207 to 209 °C

----------
Listing of entries alongside the reported melting point.

Here is how some compounds turned out for melting point.
compound: COc1ccc(CC(C)(N)C(=O)O)cc1OC (stereo not given)
observation-type: melting point
reported: 244 to 246 °C

compound: C=C(C)Cc1c(O)c(C)c(C)c2c1CC(C)(C)N2C=O
observation-type: melting point
reported: 116 to 118 °C

melting point in this record for CCCOc1ccc2c(c1)[C@H](c1ccc(OC)cc1OCC(=O)O)[C@@H](CC(=O)O)[C@@H]2c1ccc2c(c1)OCO2 (racemic) : 210 to 212 °C

melting point in this record for CCn1c(=O)[nH]c2cnc(-c3ccccc3)nc21 : 268 to 270 °C

melting point in this record for COc1cc(OC)nc(N(C)C(=O)NS(=O)(=O)c2ccccc2OC(F)(F)F)n1 : 162 °C

melting point in this record for COc1cc(C=C2C(=O)NC(=O)N2C)cc(OC)c1O : 194 to 196 °C

melting point in this record for CC(C)C(=O)N[C@@H](CSC(=O)C(C)C)C(=O)NCCSC(=O)C(C)(C)C : 105 to 107 °C

melting point in this record for CC(C)(C)OC(=O)N1CCC(COc2ccc([N+](=O)[O-])cc2)CC1 : 130 to 131 °C

melting point in this record for CC1(C)CCC(C)(C)c2cc(C#Cc3ccc(C=O)cc3)ccc21 : 130 °C

melting point in this record for COc1ccccc1-c1ccc(C(=O)O)cc1C : 160 to 162 °C

melting point in this record for Cc1c(C(=O)O)cnn1-c1nc(-c2ccccc2C(F)(F)F)cs1 : 216 °C

melting point in this record for O=C(Nc1ccccc1OCCCBr)c1cccc2[nH]ccc12 : 145 °C

----------
observation-type: melting point

compound: Cc1c(C=O)c2cc(Cl)ccc2n1-c1ccc(O)cc1
melting point: > 240 °C
--
compound: COC(=O)c1cc([N+](=O)[O-])c(C(F)(F)F)cc1NC(C)=O
melting point: 75 to 80 °C
--
compound: CC(C)(CNC(=O)/C(CCO)=C(\c1ccc(Cl)cc1)c1ccc(S(C)(=O)=O)cc1)SN=O
melting point: 150 to 153 °C
--
compound: CCOC(=O)c1ncn2c(-c3cccc(C(F)(F)F)c3)ccnc12
melting point: 232 to 234 °C
--
compound: N=C(N)NCCCOc1ccc2c(c1)NC(=O)C(CCC(=O)O)C2 (stereo not given)
melting point: 157 to 159 °C

melting point in this record for C#CCCCCOc1ccc(/C=C/C(=O)Nc2ccccc2C(=O)O)cc1OC : 148 to 150 °C

melting point in this record for O=C(NS(=O)(=O)c1cccc([N+](=O)[O-])c1)c1ccccc1Cl : 135 °C

melting point in this record for O=C1CC[C@]2(O)C[C@H]1OC2=O : 144 to 145 °C

melting point in this record for CC(C)(C)OC(=O)CN(C(=O)CNC(=O)Nc1cccc(-c2nnn[nH]2)c1)c1ccccc1C(=O)c1ccccc1 : 163 to 175 °C

melting point in this record for O=c1c2cc(-c3nnn[nH]3)ccc2sc2ncccc12 : > 300 °C

----------
observation-type: melting point

Here is how some molecules turned out for melting point.
molecule: CCOC(=O)c1ccc(CBr)cc1OC
reported: 70 to 71 °C
--
molecule: Cn1nc(-c2nc(O)c(Cl)cc2F)c(Cl)c1OC(F)F
reported: 126 to 128 °C
--
molecule: CC(CNC(=O)OC(C)(C)C)n1nnnc1S (stereo unspecified)
reported: 156 to 158 °C
--
molecule: CS(=O)(=O)c1ccc(-c2cnn(-c3ccc(F)c(F)c3)c(=O)c2OCCC2C=CCC2)cc1 (stereo unspecified)
reported: 126 to 127 °C
--
molecule: COc1ccc(-c2nc(C(=O)NCCO)c[nH]2)cc1OC1CCCC1
reported: 206 to 208 °C
--
molecule: N#Cc1ccc(C(=O)Nc2cc(C(=O)NCc3ccccc3)ccn2)cc1
reported: 180 to 181 °C

melting point in this record for C=Cc1ccc(C2=CC(=O)NC2=O)cc1 : 124 to 127 °C

melting point in this record for CCC(=O)OC1(C(=O)CO)CCC2C3CC(C)C4=CC(=O)CCC4(C)C3C(O)CC21C (stereo unspecified) : 197 °C

melting point in this record for O=C(O)CCn1cccc1Cn1ccnc1 : 127 to 128 °C

melting point in this record for N#Cc1cc2cc(C(O)(C(F)(F)F)C(F)(F)F)ccc2[nH]1 : 183 to 185 °C

melting point in this record for CNCCNc1noc2cc(OC)ccc12 : 136 to 137 °C

----------
observation-type: melting point

Here is how some molecules turned out for melting point.
molecule: COc1ccc(/C(=C\C=C\C(=O)O)c2cccnc2)cc1
melting point: 235 to 238 °C
--
molecule: O=[N+]([O-])c1ccc(Oc2ccc(S(=O)(=O)c3ccc(Oc4ccc([N+](=O)[O-])c(O)c4)cc3)cc2)cc1O
melting point: 220 to 222 °C
--
molecule: COC(=O)c1ccc(N=Cc2cccc(F)c2)cn1
melting point: 111 to 114 °C
--
molecule: O=C(OCC=Cc1ccccc1)C(=C1NCCCS1)[N+](=O)[O-]
melting point: 115 to 116 °C
--
molecule: CN(C)c1c([N+](=O)[O-])cc(-c2nc(Cl)c(CC#N)n2Cc2ccccc2)cc1[N+](=O)[O-]
melting point: 173 to 175 °C
--
molecule: O=C(O)/C=C/c1cccc(OS(=O)(=O)C(F)(F)F)c1
melting point: 107 °C
--
molecule: O=c1oc2c(c(O)c1C1(c3ccccc3)CCC1)CCCCCC2
melting point: 240 to 241 °C
--
molecule: NC(=O)CCCOc1cccc(-c2n[nH]c3c2Cc2ccccc2-3)c1
melting point: 200 to 202 °C
--
molecule: CC1=C(Cl)CC2C(=O)OC(=O)C2C1 (stereo unspecified)
melting point: 76 to 78 °C
--
molecule: Cc1oc(-c2cccs2)nc1CC#N
melting point: 185 °C

melting point in this record for O=c1ncc(Br)cn1COCc1ccccc1 : 169 °C
